- MEASURED ON: T1, cyno CD137 (cynomolgus monkey, UniProt Q07011 24-186 (human entry), limits assumed)
- T1 construct: also called cynomolgus monkey CD137
- T1 chain: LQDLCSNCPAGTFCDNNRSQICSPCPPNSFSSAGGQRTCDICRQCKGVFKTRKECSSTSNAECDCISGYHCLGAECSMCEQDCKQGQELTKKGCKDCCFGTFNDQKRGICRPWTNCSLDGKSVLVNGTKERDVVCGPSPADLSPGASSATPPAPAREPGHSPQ
- ASSAY SUMMARY: SPR Biacore T200, IgG captured on protein A, 25 C;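 also: antigens diluted in ACES running buffer at pH 7.4 were flowed over antibodies held on a CM3 chip bearing amine-coupled protein A, with buffer alone serving as blank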
Below, each entry is listed alongside its reported koff.
Could you give me the number in s⁻¹? Just the number is fine.

Before answering, review these 2 worked examples.
1) dBBDu193/L132 (antibody, V domains shown, IgG format; constant regions not specified; also called dBBDu_193 dBBDu.L132) VH: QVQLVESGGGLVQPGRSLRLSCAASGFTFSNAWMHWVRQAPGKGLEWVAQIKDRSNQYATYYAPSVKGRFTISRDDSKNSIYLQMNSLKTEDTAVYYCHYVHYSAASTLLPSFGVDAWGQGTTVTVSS VL: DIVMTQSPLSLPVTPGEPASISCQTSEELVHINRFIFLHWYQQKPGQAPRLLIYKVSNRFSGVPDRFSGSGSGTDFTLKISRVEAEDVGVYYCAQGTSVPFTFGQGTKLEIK
0.0061
2) dBBDu186/L096 (antibody, V domains shown, IgG format; constant regions not specified) VH: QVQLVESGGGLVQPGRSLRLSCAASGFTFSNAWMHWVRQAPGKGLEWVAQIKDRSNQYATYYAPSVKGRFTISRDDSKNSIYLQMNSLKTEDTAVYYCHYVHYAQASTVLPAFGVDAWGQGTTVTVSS VL: DIVMTQSPLSLPVTPGEPASISCRTSQELVHINRYIFLHWYQQKPGQAPRLLIYKVYNRFQGVPDRFSGSGSGTDFTLKISRVEAEDVGVYYCAQGTSVPYTFGQGTKLEIK
0.00223

Now take the following binder into account.
What value of koff has been reported for the following binder? dBBDu167/L094 (antibody, V domains shown, IgG format; constant regions not specified; also called dBBDu_167 dBBDu.L094) VH: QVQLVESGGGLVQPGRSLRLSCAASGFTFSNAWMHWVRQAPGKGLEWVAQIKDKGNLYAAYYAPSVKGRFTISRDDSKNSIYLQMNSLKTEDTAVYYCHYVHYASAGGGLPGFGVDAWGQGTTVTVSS VL: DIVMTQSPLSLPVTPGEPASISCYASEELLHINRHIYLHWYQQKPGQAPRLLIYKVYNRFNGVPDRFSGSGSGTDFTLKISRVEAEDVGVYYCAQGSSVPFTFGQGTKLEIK 0.0748
